- Experimental target: T1, Human OSCAR (osteoclast-associated receptor), full length, on cells (human)
- T1 construct: The signal peptide limits cannot be read from the text; also called hOSCAR; HEK-OSCAR cells
- T1 chain: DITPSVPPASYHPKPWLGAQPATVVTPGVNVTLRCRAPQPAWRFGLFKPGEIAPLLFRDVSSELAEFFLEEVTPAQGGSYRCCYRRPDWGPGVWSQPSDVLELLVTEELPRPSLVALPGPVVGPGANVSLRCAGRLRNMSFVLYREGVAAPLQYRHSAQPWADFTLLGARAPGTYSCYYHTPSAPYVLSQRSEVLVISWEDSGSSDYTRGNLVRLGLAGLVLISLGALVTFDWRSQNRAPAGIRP
- Protocol description: flow cytometry on primary human monocytes, donor #2
- Protocol: Cell number and viability were determined using a Cedex cell counter. The cells were diluted in washing buffer (1×PBS (—Ca²⁺/—Mg²⁺)+5% FBS+0.1% Na-azide) to 10⁷ cells/90 μl. […] Cells were washed in PBS, re-suspended in fixation buffer (1×PBS (—Ca²⁺/—Mg²⁺), pH7.2+1% formalin (B&B, #LAB96751.0500) and analysed by FACS flow cytometer. EC₅₀ values were calculated using a GraphPad Prism 5 software.
Test readout: EC50 (nM)
Number in nM, nothing else.

Reference set, count: 6
Binder	EC50 [nM]
7F21A1 (antibody, V domains shown, Mouse anti-human OSCAR mAb; The heavy chain entry covers only VH-CH1 and the start of the hinge) VH: QVQLQQSGAELVRPGTSVKVSCRSSGYAFTNYLIEWIKQRPGQGLEWIGVITPGSGGTNYNENFKDKATLTADKSSNTAYMQLTSLTSDDSAVYFCARSFDYDGAWFAYWGQGTLVTVSA VL: DIQMTQSPASLSVSVGETVTITCRASEKIYSNLAWYQQKQGKSPQLLVYAATNLADGVPSRFSGSGSGTQFSLKINNLQSEDFGSYYCQHFWGTPWTFGGGTKLEIKR	0.01
7F14A1 (antibody, V domains shown, Mouse anti-human OSCAR mAb; also called 7F14A4) VH: QVQLKESGPGLVAPSQSLSITCSVSGFSLTSYGVHWVRQPPGKGLEWLGVMWAGGSTNYNSALMSRLSISKDNSKSQVFLKMNSLQTDDSAMYYCALQKGYGNYFDYWGQGTTLTVSS VL: QIVLTQSPAIMSASPGEKVTMTCSASSSVNYMHWYQQKSGTSPKRWIYDTSNLASGVPTRFSGSGSGTSYSLTISSMEAEDAATYYCQQWSSDPLTFGAGTKLELKR	0.55
4F3B (antibody, V domains shown, Mouse anti-human OSCAR mAb (its isotype control is mIgG1); The heavy chain entry covers only VH-CH1 and the start of the hinge; It was fluorescein-labelled in the peptide array and Alexa Fluor 647-labelled in the flow binning; also called mAb 4F3B) VH: QVQLQQSGAELAKPGASVKMSCKASGFTFTSYWMHWVKQRPGQGLEWIGYINPSTDYTEYNQKFKDKATLTADKSSSTAYMQLSSLTSEDSAVYYCARRSPFAMDYWGQGTSVTVSS VL: DIVMTQSPSSLTVTAGEKVTMSCKSSQSLLNSGNQKNYLTWYQQKPGQPPKVLIYWASTRESGVPDRFTGSGSGTDFTLTISSVQAEDLAVYYCQNDYSYPLTFGTGTKLELKR	0.32
7F10A1 (antibody, V domains shown, Mouse anti-human OSCAR mAb; The heavy chain entry covers only VH-CH1 and the start of the hinge) VH: QVQLQQSGAELARPGASVKLSCKASGYTFTDNYINWVKQRTGQGLEWIGEIYPGSGNTYYNEKFKGKATLTADKSSSTAYMQLSSLTSEDSAVYFCARSANRYDRGDFDYWGQGTPLTVSS VL: QILLTQSPAIMSASPGEKVTMTCSASSSVSYMHWYQQKPGSSPKPWIYDTSNLASGFPARFSGSGSGTSYSLIISSMEAEDAATYYCHQRSSYPYTFGGGTKLEIKR	0.12
3F7A9 (antibody, V domains shown, Mouse anti-human OSCAR mAb (its isotype control is mIgG1); The heavy chain entry covers only VH-CH1 and the start of the hinge; also called 3F7A9-1) VH: EIQLQQSGPELVKPGASVKVSCKASGYVFTSYNMYWVKQSHGKSLEWIGYIDPYNGGTRYNQKFKGKATLTVDKSSSTAYMHLNSLTSEDSAVYYCARLDYYGNFYWGQGTTLTVSS VL: DIKMTQSPSSMYASLGERVTITCKASQDINSFLSWLQQKPGKSPKTLIYRANRLVDGVPSRFSGSGSGQDYSLTISSLEYEDMGIYYCLQYDDFPYTFGGGTKLEIKR	0.14
7F1A1 (antibody, V domains shown, Mouse anti-human OSCAR mAb; The heavy chain entry covers only VH-CH1 and the start of the hinge) VH: QVQLQQSGAELVRPGTSVKVSCKASGYAFTNYMIEWVKKRPGQGLEWIGVINPGSGGTNYNEKFENKATLTADKSSSTAYMQLSSLTSDDSAVYFCARSLDFDGAWFAYWGQGTLVTVSA VL: DIQMTQSPASLSVSVGETVTITCRASEKIYSNLAWYQQKQGKSPQLLVYAATNLADGVPSRFSGSGSGTQFSLKINSLQPEDFGSYYCQHFWGIPWTFGGGTKLEIKR	0.12

Continue with the binder presented below.
Q. Recorded EC50 of 7F6A1 (antibody, V domains shown, Mouse anti-human OSCAR mAb; The heavy chain entry covers only VH-CH1 and the start of the hinge) VH: DVKLVESGGGLVKPGGSLKLSCAASGFTFSSYVMSWVRQTPEKRLEWVATISSGGSYTYYPDSVKGRFTISRDNAKNTLYLQMSSLKSEDTAMYYCTREGGNSPDYWGQGTTLTVSS VL: ENVLTQSPAIMSASPGEKVTMTCSVSSSISYMHWYRQKSFTSPQLWIYDTSKLASGVPGRFSGSGSGISYSLTISSMEAEDVATYYCFQGSEYPLTFGAGTKLELKR , please.
A. 0.14
